- MEASUREMENT_TARGET: SNAT2 (Homo sapiens, UniProt Q96QD8)
- Construct: hyperosmotically treated PC-3 cells, known to upregulate SNAT2; endogenous in cells; host or cells: PC-3 prostate cells exposed to hyperosmotic medium for 24 h
- Sequence (Q96QD8 whole entry): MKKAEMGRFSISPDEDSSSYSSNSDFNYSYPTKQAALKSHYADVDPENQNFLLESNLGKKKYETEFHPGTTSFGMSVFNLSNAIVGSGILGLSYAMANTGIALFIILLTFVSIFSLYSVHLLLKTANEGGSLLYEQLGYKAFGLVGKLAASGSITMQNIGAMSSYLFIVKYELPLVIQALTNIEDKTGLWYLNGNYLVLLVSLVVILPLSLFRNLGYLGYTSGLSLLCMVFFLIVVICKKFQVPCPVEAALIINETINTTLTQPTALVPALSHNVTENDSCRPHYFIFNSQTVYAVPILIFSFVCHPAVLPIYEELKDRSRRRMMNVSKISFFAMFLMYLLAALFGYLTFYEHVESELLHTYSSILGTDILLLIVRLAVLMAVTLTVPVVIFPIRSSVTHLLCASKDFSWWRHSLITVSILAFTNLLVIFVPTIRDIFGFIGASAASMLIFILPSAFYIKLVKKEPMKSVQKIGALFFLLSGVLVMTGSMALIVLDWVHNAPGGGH
- ASSAY_SUMMARY: Inhibition of SNAT2-mediated 3H-glycine uptake in hyperosmotically treated PC-3 cells
- Assay type: cell-based
- RECORDED_CONDITIONS: hyperosmotically treated PC-3 cells, 5 min uptake of 11.1 nM 3H-glycine, pH 7.4; read-out: IC50
Counter-ions that a name gives are not always drawn.
OBSERVATION_TYPE: IC50
Please provide the amount together with its unit, number first.

CNCC(=O)O [Sarcosine, sarcosine] | 710 µM
N[C@@H](CCO)C(=O)O [L-Homoserine, L-homoserine] | 250 µM

--- query ---
Prompt line: Input CCOC(=O)[C@H](C)N [L-Alanine ethyl ester, L-alanine ethyl ester hydrochloride] , output reported IC50.
Response line: 420 µM
